Test system: heart rate in rats
Experiment: Effects on heart rate in rats
Type: in vivo, SD rats
Details: 40 mg/kg intragastric; time point 120
recorded-endpoint: Heart rate (BTM)

molecule	recorded-endpoint	numeric-result
[2H]C([2H])([2H])Oc1cc2c(cc1OC)CCN1Cc3c(ccc(OC([2H])([2H])[2H])c3OC)C[C@@H]21	Heart rate	393.5
[2H]C([2H])([2H])Oc1cc2c(cc1OC([2H])([2H])[2H])[C@@H]1Cc3ccc(OC([2H])([2H])[2H])c(OC([2H])([2H])[2H])c3CN1CC2	Heart rate	356.7
[2H]C([2H])([2H])Oc1ccc2c(c1OC)CN1CCc3cc(OC)c(OC)cc3[C@@H]1C2	Heart rate	378.0
COc1cc2c(cc1OC)[C@@H]1Cc3ccc(OC)c(OC)c3CN1CC2 [THP, L-tetrahydropalmatine, reference compound]	Heart rate	372.0
